- Tested on: SF-539 CNS
- method notes: NCI-60 one-dose screen, 48 h (100 = growth as untreated, 0 = no growth, -100 = all killed)
- condition: 10 µM unless noted
- Description: Cells are grown in 96 well plates and exposed to the test compound for 48 hours. Compounds are tested at a single concentration, which is 10^-5 M for most compounds. The reported endpoint is percent growth (GI% or GIPRCNT), where numbers from 0 - 100% represent growth inhibition, and numbers from -100% - 0 represent cell death. For example, a value of 40 represents 60% growth inhibition. A value of 0 means no net growth occurred over the course of the experiment. […]
Compounds without any hit were thinned out: in the full panel of roughly 83,000, 20% have a hit.
measurement name: growth (%)
Hi! Could you send only the number? It should be in %, unit omitted.

# return growth of COc1cc2c(Nc3ccc(NC(=O)Nc4ccc(Cl)c(C(F)(F)F)c4)c(Cl)c3)ncnc2cc1OCCCN1CCN(C)CC1 (system: SF-539 CNS)
-77.9

# return growth of COc1cc(/C=C/C(=O)c2ccc(NC(=O)CSc3nnc(-c4cc(OC)c(OC)c(OC)c4)n3-c3ccccc3)cc2)cc(OC)c1OC (system: SF-539 CNS)
18.6

# return growth of C=CCn1c(SCC(=O)Nc2ccc(C(=O)/C=C/c3cc(OC)c(OC)c(OC)c3)cc2)nnc1-c1ccc(Cl)cc1 (system: SF-539 CNS)
17.2

# return growth of Cc1c(C(=O)Nc2nc3ccccc3[nH]2)cnn1-c1ccccn1 (system: SF-539 CNS)
98.9

# return growth of NC(=O)C(O)(c1ccccc1)c1ccccc1 (system: SF-539 CNS)
103

# return growth of C=C1C(=O)O[C@H]2[C@H]1CC/C(COC(=O)c1cc3ccccc3o1)=C\CC[C@@]1(C)O[C@@H]21 (system: SF-539 CNS)
-40.7

# return growth of CCCCCCN1C(=O)CN=C1Nc1ccc2cc3ccc(NC4=NCC(=O)N4CCCCCC)cc3nc2c1 (system: SF-539 CNS)
76.6

# return growth of COC(=O)/C=C/c1cc(OC(C)=O)c2c(c1)C(C(=O)OC)C(c1ccc(OC(C)=O)c(OC(C)=O)c1)O2 (centres undefined) (system: SF-539 CNS)
-6.94

# return growth of COc1cc(/C=N/Nc2nc(-c3ccc(F)cc3)c(C#N)c(N3CCOCC3)n2)ccc1O (system: SF-539 CNS)
93.7
